observation-type: melting point

Consider the worked cases shown below.
O=C(CON1C(=O)c2ccccc2C1=O)NOCc1ccccc1: 118 to 120 °C
O=C1CCCc2c1c1cc(Cl)ccc1n2Cc1ccc(F)cc1: 207 to 208 °C
N#Cc1cn(Cc2ccccc2)nn1: 78 to 79 °C
C[C@@H](S[C@H]1CO[C@H](/C=C/c2ccc(C(F)(F)F)cc2)OC1)[C@](O)(Cn1cncn1)c1ccc(F)cc1F: 73 to 75 °C
O=C(Nc1ccccc1)N(Cc1ccc(Cl)cc1)C1CC2CCC1C2 (stereo unspecified): 111 to 113 °C

Incoming: Look up and report measured melting point for this entry: CCOC(=O)C(C)CSCC(NC(=O)CCC(N)C(=O)O)C(=O)NCC(=O)O (stereo unspecified)
Outgoing: 193 to 194 °C

Incoming: Look up and report measured melting point for this entry: "COc1ccc(Cn2c(=O)[nH]c3cc([N+](=O)[O-])ccc3c2=O)cc1"
Outgoing: 244 to 246 °C

Incoming: Look up and report measured melting point for this entry: "CS(=O)(=O)c1cccc(-c2ccccc2N)c1"
Outgoing: 114 to 115 °C

Incoming: Look up and report measured melting point for this entry: "CNC(=S)NCCSCc1csc(N)n1"
Outgoing: 136 to 140 °C

Incoming: Look up and report measured melting point for this entry: CC(=O)OCCC1(C)CCc2c(C)c(OCc3ccccc3)c(C)c(C)c2O1 (stereo unspecified)
Outgoing: 58 to 62 °C

Incoming: Look up and report measured melting point for this entry: "CSc1nc(-c2nn[nH]n2)c(I)c(C(F)(F)F)n1"
Outgoing: 196 to 200 °C

Incoming: Look up and report measured melting point for this entry: "CN(C)CCCn1nnc(-c2ccc3c(c2)S(=O)(=O)c2ccccc2C3=O)n1"
Outgoing: 141 to 142 °C

Incoming: Look up and report measured melting point for this entry: CN1C(=O)C2(COc3cc4c(cc32)OCCO4)c2c(-c3ccoc3)cccc21 (stereo unspecified)
Outgoing: 178 to 180 °C

Incoming: Look up and report measured melting point for this entry: "Cc1[nH]c(C(=O)N2CCC(C(=O)N(C)CCN(C)C)CC2)c(C)c1-c1nc2ccc(C(=O)c3ccccc3)cc2[nH]1"
Outgoing: 264 to 266 °C

Incoming: Look up and report measured melting point for this entry: "O=C(O)CCCCCCCCNS(=O)(=O)c1ccccc1"
Outgoing: 82 to 84 °C

Incoming: Look up and report measured melting point for this entry: "CCc1nn(CCO)c(CC)c1Oc1cc(C#N)cc(C#N)c1"
Outgoing: 125 °C

Incoming: Look up and report measured melting point for this entry: "Cc1ccc(S(=O)(=O)Nc2ccc(C#N)cc2)cc1"
Outgoing: 182 to 184 °C

Incoming: Look up and report measured melting point for this entry: CCC1(CC(=O)OC)OCCc2c1[nH]c1c(CCO)c(F)ccc21 (stereo unspecified)
Outgoing: 101 to 103 °C

====

observation-type: melting point

Cc1cc(-c2sc(N3CCN(Cc4ccc(F)cc4)C3=O)nc2C)n[nH]1: 218 to 221 °C
C[Si](C)(C)C#Cc1ccc(C(=O)OCc2ccccc2)cc1OCc1ccccc1: 110 to 112 °C
COc1ccc2c3c([nH]c2c1[N+](=O)[O-])C(=O)CC3: 228 °C
CCOc1cc([N+](=O)[O-])ccc1NC(C)=O: 164 to 165 °C

Query compound follows.
Incoming: Look up and report measured melting point for this entry: NS(=O)(=O)c1cc2c(cc1Cl)NC(C1CCCCC1)NS2(=O)=O (stereo not given)
Outgoing: 274 to 276 °C

Data credit: a melting point compilation (Tetko et al.; mined from patent text by program, amines drawn as free bases though some values may be those of a salt)
